# subject.of.test: human glucagon-like peptide 1 receptor (human, UniProt P43220 24-463)
# protocol.description: cell-based or functional assay
Where no end group is shown, it is not given here. [ ]: non-standard residue; d: D form. Aib = CC(C)(N)C(=O)O
measured.quantity: hGLP-1R CRE Luc EC50 (pM)
# unit: pM | format: bare number

Exercise: I have this binder here, Y[Aib]QGTFTSDYSIYLDKQAA[Aib]EFVNWLLAGGPSSGAPPPS-NH2 (not fully specified (residue 16); printed as Y-Aib-QGTFTSDYSIYLD-K[2-[2-[2-[2-[2-[2-[[[(4S)-4-carboxy-4-(19-carboxynonadecanoylamino) butanoyl]amino]ethoxy]ethoxy]acetyl]amino]ethoxy]ethoxy]acetyl]-QAA-Aib-EFVNWLLAGGPSSGAPPPS-NH2) [Compound No. 5] , and I need its recorded hGLP-1R CRE Luc EC50 (pM).
Solution: 7.2

Exercise: And Y[Aib]QGTFTSDYSIYLDKKAA[Aib]EFVNWLLAGGPSSGAPPPS-NH2 (not fully specified (residue 17); printed as Y-Aib-QGTFTSDYSIYLDK-K[2-[2-[2-[[2-[2-[2-[[(4S)-4-carboxy-4-[[4-[(19-carboxynonadecanoylamino)methyl]cyclohexanecarbonyl]amino]butanoyl]amino]ethoxy]ethoxy]acetyl]amino]ethoxy]ethoxy]acetyl]-AA-Aib-EFVNWLLAGGPSSGAPPPS-NH2) [Compound No. 10] ?
Solution: 4.7
